target: human EGF-receptor kinase (Homo sapiens); construct: GST; assay: Inhibition of human EGF-receptor kinase (ELISA, bio-pEY substrate); conditions: cytoplasmic tyrosine kinase domain (Met664-Ala1186) as GST fusion protein; substrate pEY (4:1)/bio-pEY; 30 minutes at ambient temperature
Sequence (P00533 688-1210): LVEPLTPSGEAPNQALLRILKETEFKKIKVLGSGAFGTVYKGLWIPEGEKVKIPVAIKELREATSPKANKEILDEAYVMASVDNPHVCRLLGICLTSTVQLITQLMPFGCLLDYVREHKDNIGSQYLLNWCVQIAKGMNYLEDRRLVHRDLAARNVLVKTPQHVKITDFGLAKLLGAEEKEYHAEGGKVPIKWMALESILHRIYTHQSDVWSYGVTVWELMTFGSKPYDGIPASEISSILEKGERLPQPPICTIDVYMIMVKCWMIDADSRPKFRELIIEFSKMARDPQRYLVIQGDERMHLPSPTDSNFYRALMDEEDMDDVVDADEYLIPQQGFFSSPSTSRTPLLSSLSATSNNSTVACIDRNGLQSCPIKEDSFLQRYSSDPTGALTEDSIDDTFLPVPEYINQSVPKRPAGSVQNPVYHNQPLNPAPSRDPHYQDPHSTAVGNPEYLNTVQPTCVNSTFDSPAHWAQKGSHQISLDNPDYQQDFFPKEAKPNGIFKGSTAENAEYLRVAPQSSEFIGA
pIC50: −log10 of the molar value.
Outcome: yes (1) for pIC50 of at least 9; no (0) for anything lower.

Hello, I need to know if CN(C)CC=CC(=O)Nc1cc2c(Nc3ccc(F)c(Cl)c3)ncnc2cc1OC[C@@H]1CCCO1 [1 (32)] has measured pIC50 not below 9. Thanks!
yes (1)

Hello, I need to know if CC(C)N(C)CC=CC(=O)Nc1cc2c(Nc3ccc(F)c(Cl)c3)ncnc2cc1O[C@H]1CCOC1 [1 (34)] has measured pIC50 not below 9. Thanks!
yes (1)

Hello, I need to know if COCCN(C)CC=CC(=O)Nc1cc2c(N[C@H](C)c3ccccc3)ncnc2cc1OCC1CC1 [1 (5)] has measured pIC50 not below 9. Thanks!
no (0)

Hello, I need to know if CCN(C)CC=CC(=O)Nc1cc2c(Nc3ccc(F)c(Cl)c3)ncnc2cc1O[C@H]1CCOC1 [1 (33)] has measured pIC50 not below 9. Thanks!
yes (1)

Hello, I need to know if COCCN(CC=CC(=O)Nc1cc2c(N[C@H](C)c3ccccc3)ncnc2cc1OCC1CC1)CCOC [1 (3)] has measured pIC50 not below 9. Thanks!
no (0)
